Numbers sourced from patent US8541407B2.

- tested-system: AKT1 (Homo sapiens (Human), UniProt P31749)
- Sequence (P31749 whole entry): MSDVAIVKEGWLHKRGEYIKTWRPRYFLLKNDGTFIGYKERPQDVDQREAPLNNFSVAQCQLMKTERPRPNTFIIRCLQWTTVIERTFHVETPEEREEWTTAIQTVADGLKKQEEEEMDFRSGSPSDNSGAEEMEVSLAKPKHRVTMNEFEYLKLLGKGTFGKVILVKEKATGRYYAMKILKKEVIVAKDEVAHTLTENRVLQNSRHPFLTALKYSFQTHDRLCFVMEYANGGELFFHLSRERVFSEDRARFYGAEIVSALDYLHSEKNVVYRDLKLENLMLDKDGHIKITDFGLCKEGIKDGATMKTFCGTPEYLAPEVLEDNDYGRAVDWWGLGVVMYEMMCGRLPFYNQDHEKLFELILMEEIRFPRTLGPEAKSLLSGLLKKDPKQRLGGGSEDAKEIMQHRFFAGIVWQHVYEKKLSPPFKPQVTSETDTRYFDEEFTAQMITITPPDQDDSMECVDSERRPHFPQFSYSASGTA
- protocol-description: Inactive Akt Alpha Screen Assay
- condition-parameters: non *labeled: Akt Alpha Screen assay; read-out: AKT1 biochemical assay, IC50
Counter-ions that a name gives are not always drawn.
Exam item: assign 1.0 to entries whose IC50 is below 500 nM and 0.0 to entries at or above 500 nM. Note that a value of exactly 500 nM receives 0.0.

compound	label-value
O=C(Nc1ccc(-c2nnc3n2-c2cccnc2Nc2ccccc2-3)cc1)c1ccccc1F	1.0
Oc1ccc(-c2nnc3n2-c2cccnc2Nc2ccccc2-3)cc1	0.0
NC1(c2ccc(-c3nnc4n3-c3cccnc3Nc3ccccc3-4)cc2)CCC1	1.0
Cc1ccc(NC(=O)NC2CCN(Cc3ccc(-c4nnc5n4-c4cccnc4Nc4ccccc4-5)cc3)CC2)cc1	1.0
O=C(Cc1cccc2ccccc12)Nc1ccc(-c2nnc3n2-c2cccnc2Nc2ccccc2-3)cc1	0.0
Cc1ccc(-c2nnc3n2-c2cccnc2Nc2ccccc2-3)cc1 [Example 6, hydrochloride]	0.0
